measuredOn: HLA-B*15:01
assayName: IEDB peptide-MHC binding, purified MHC/competitive/radioactivity; filed as Kd, often an IC50 or EC50 that approximates it; bounds were set here for any values at or beyond the usual limits of such assays
appliedConditions: source organism: Dengue virus 2 Jamaica/1409/1983
resultType: pKd
Remember the convention: pKd equals -log10 of concentration in molar.

# pKd (sequence: TQVPFCSHHF ) is 8.63

----------
measuredOn: HLA-A*03:01
assayName: IEDB peptide-MHC binding, purified MHC/competitive/fluorescence; filed as Kd, often an IC50 or EC50 that approximates it; bounds were set here for any values at or beyond the usual limits of such assays
appliedConditions: source organism: Influenza A virus H3N2
resultType: Kd (nM)
State just the number; it will be interpreted in nM.

# Kd (sequence: FSFGGFTFK ) is 3.7

----------
measuredOn: HLA-B*46:01
assayName: IEDB peptide-MHC binding, purified MHC/competitive/fluorescence; filed as Kd, often an IC50 or EC50 that approximates it; bounds were set here for any values at or beyond the usual limits of such assays
appliedConditions: source organism: Giardia lamblia ATCC 50803
resultType: Kd

# Kd (sequence: LLDDGWAGE ) is ≥ 20 µM

----------
measuredOn: HLA-A*02:19
assayName: IEDB peptide-MHC binding, purified MHC/direct/fluorescence; filed as Kd, often an IC50 or EC50 that approximates it; bounds were set here for any values at or beyond the usual limits of such assays
appliedConditions: source organism: Encephalitozoon cuniculi GB-M1
resultType: Kd

Before answering, review these 2 worked examples.
| sequenceEntry | obsValue |
| --- | --- |
| EAYCALLCK | ≥ 20 µM |
| SPLPITLKY | ≥ 20 µM |

# input for lookup
# Kd (sequence: HPYVFCALL ) is ≥ 20 µM

----------
measuredOn: HLA-A*29:02
assayName: IEDB peptide-MHC binding, purified MHC/direct/fluorescence; filed as Kd, often an IC50 or EC50 that approximates it; bounds were set here for any values at or beyond the usual limits of such assays
appliedConditions: source organism: Ebola virus - Gabon (1994-1997)
resultType: Kd

# Kd (sequence: AKATGRYNL ) is ≥ 20 µM

----------
measuredOn: HLA-A*02:17
assayName: IEDB peptide-MHC binding, purified MHC/competitive/radioactivity; filed as Kd, often an IC50 or EC50 that approximates it; bounds were set here for any values at or beyond the usual limits of such assays
appliedConditions: source organism: Dengue virus 3 Martinique/1243/1999
resultType: Kd (nM)
State just the number; it will be interpreted in nM.

QLWTALISL tested on HLA-A*02:17 gave Kd: 234

----------
measuredOn: HLA-A*02:12
assayName: IEDB peptide-MHC binding, purified MHC/direct/fluorescence; filed as Kd, often an IC50 or EC50 that approximates it; bounds were set here for any values at or beyond the usual limits of such assays
appliedConditions: source organism: Vibrio vulnificus YJ016
resultType: Kd

# Kd (sequence: TSCAPMMQK ) is ≥ 20 µM

----------
measuredOn: HLA-A*02:01
assayName: IEDB peptide-MHC binding, purified MHC/direct/fluorescence; filed as Kd, often an IC50 or EC50 that approximates it; bounds were set here for any values at or beyond the usual limits of such assays
appliedConditions: source organism: Entamoeba histolytica HM-1:IMSS
resultType: Kd
Number first, unit second.

# Kd (sequence: RQRHYFDSA ) is 7 µM
